molecular target: Platelet-derived growth factor receptor beta (Homo sapiens, UniProt P09619); test: Inhibition of PDGFRbeta in human SF539 cells pretreated for 60 mins measured after 10 mins by ELISA
Sequence (P09619 whole entry): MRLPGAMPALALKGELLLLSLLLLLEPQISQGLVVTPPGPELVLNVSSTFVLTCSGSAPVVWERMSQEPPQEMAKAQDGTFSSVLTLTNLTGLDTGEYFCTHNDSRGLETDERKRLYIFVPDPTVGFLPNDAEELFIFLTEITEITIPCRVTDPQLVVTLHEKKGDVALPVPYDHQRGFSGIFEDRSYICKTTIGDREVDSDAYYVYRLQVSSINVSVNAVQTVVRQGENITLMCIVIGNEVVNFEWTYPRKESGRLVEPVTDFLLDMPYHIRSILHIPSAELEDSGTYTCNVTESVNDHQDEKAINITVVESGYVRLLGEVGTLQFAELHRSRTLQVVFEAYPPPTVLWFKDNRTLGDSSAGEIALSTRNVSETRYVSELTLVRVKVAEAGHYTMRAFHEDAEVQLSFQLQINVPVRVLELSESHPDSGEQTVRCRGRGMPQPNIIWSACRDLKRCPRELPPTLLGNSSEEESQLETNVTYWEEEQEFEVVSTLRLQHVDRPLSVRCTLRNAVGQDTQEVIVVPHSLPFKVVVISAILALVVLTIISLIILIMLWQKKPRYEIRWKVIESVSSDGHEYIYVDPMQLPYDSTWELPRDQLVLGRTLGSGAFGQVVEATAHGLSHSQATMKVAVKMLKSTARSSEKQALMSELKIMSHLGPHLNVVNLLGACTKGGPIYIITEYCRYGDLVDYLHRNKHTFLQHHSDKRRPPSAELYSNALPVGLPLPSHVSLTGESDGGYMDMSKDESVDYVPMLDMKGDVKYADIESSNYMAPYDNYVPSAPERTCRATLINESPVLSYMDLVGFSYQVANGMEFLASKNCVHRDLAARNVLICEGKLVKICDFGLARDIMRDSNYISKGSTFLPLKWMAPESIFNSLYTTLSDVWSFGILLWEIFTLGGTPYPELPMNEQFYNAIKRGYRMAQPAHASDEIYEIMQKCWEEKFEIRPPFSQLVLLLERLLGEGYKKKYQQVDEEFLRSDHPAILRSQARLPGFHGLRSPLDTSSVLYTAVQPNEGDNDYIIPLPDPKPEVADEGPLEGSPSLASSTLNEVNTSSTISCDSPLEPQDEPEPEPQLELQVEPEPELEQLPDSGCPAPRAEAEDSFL
IC50 values by entry
Respond with the bare value in µM.

Recorded results for 2 compounds are shown here.
> print(dat)
                               smilesstring  numericreadout
1  Nc1nc2c(c(Nc3ccc(C(F)(F)F)cc3)n1)-c1ccccc1C2            23.1
2    Nc1nc2c(c(Nc3ccc(Br)cc3)n1)-c1ccccc1C2            38.9

Okay, next one:
Request: I have this compound here, `Nc1nc2c(c(Nc3ccc(F)cc3)n1)-c1ccccc1C2` , and I need its recorded IC50.
Response: 5.9

// provenance: ChEMBL document CHEMBL2046359
